- Test system: Escherichia coli TOP10;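 further: peptides expressed intracellularly from a pBAD plasmid library in pooled LB shake-flask culture, induced with 0.3% L-arabinose, DNA abundance read by NGS, three biological replicates, DESeq2 with apeglm shrinkage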
- assay name: shrunken log2 fold change of peptide-encoding DNA abundance (4.5 h post-induction vs induction); higher = less antimicrobial activity (less host growth inhibition)
- experimental context: time post-induction: 4.5 h; library: site-saturation at positions 5, 18, 19, 20
readout type: shrunken log2 fold change
Reply with just the number.

INSERT INTO results (sequence_input, assay_value) VALUES
  ('RRIRIRPPRLPRPRPRPGAHPRP', -0.0753),
  ('RRIRCRPPRLPRPRPRPEHQPRP', 0.0614);

QUERY: Provide the documented shrunken log2 fold change with Escherichia coli TOP10 as the system for RRIRKRPPRLPRPRPRPDESPRP
RESULT: 0.0701
